# MEASURED_TARGET: T1, recombinant human IL-23R/Fc chimera (R&D Systems) (human, UniProt Q5VWK5 24-355)
# T1 construct: Bought; also called rhIL23RFc
# T1 sequence (looked up): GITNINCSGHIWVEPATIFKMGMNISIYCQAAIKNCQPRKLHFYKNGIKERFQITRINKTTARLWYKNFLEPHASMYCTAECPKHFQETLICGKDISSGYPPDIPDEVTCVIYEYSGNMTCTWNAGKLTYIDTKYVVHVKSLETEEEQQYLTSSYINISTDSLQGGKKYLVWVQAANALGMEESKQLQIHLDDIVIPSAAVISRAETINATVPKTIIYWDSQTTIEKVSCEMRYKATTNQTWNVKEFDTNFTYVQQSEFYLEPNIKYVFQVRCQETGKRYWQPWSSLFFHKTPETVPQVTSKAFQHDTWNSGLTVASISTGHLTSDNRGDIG
# RUN_DESCRIPTION: competition ELISA vs IL-23
OBSERVABLE: Ratio IC50 to 056-53.H4E IC50
The answer should be written as a number, with no unit following it.

binder="101-51-1A8 ATRIMER complex (designed binder, Forms a homotrimer through the tetranectin coiled coil; one protomer is given., not shown: C-terminal tag: His/Myc (pANA4) or HA-StrepII (pANA10)) EPPTQKPKKIVNAKKDVVNTKMFEELKSRLDTLAQEVALLKEQQALQTVCLKGTKVHMKCFLAFTQTKTFHEASEDCISRGGTLSTPQTGSENDALYEYLRQSVGNEAEIWLGLNGSALTNTWVDMTGARIAYKNWERTPPWQPEGGFGYFGENCAVLSGAANGKWFDKRCRDQLPYICQFGIV" result_number=3.7
binder="101-80-5E8 ATRIMER complex (designed binder) EPPTQKPKKIVNAKKDVVNTKMFEELKSRLDTLAQEVALLKEQQALQTVCLKGTKVHMKCFLAFTQTKTFHEASEDCISRGGTLSTPQTGSENDALYEYLRQSVGNEAEIWLGLNGSALTNTWVDMTGARIAYKNWEPPEPLHPMGGFGVFGENCAVLSGAANGKWFDKRCRDQLPYICQFGIV" result_number=0.6

[Q] # get_value(readout='Ratio IC50 to 056-53.H4E IC50', item= 101-51-1A7 ATRIMER complex (designed binder, Forms a homotrimer through the tetranectin coiled coil; one protomer is given., not shown: C-terminal tag: His/Myc (pANA4) or HA-StrepII (pANA10)) EPPTQKPKKIVNAKKDVVNTKMFEELKSRLDTLAQEVALLKEQQALQTVCLKGTKVHMKCFLAFTQTKTFHEASEDCISRGGTLSTPQTGSENDALYEYLRQSVGNEAEIWLGLNGSALTNTWVDMTGARIAYKNWERPPLYQPGGGWGVFGENCAVLSGAANGKWFDKRCRDQLPYICQFGIV )
[A] 1
